Readings of IC50 for the listed compounds
System: QG56
method.summary: Anti-proliferative activity assay, QG56
Format: cell-based, human
cond: Homo sapiens, QG-56, 96 h; QG56 non small cell lung cancer cells, 4 days, WST-8; read-out: Anti-proliferative activity assay (IC50 in nM) QG56 (NSCLC)
Your answer should be a plain number; it is taken to be in nM.

[in] Give the measured IC50 of CCCCCN1C=Nc2cccc3nc4c(c1c23)Cn1c-4cc2c(c1=O)COC(=O)[C@]2(O)CC .
[out] 7.7

[in] Here is the next compound: CC[C@@]1(O)C(=O)OCc2c1cc1n(c2=O)Cc2c-1nc1cccc3c1c2N(CCc1ccccc1)C(=O)N3
[out] 7.1

[in] Here is the next compound: CC[C@@]1(O)C(=O)OCc2c1cc1n(c2=O)Cc2c-1nc1cccc3c1c2N(CCC(C)C)C(CO)=N3
[out] 7.4

# context switch: different compound, same IC50
[in] Give the measured IC50 of CCCCCN1C(C)=Nc2cccc3nc4c(c1c23)Cn1c-4cc2c(c1=O)COC(=O)[C@]2(O)CC .
[out] 15

* * *

Tested on: HCT116
method.summary: Anti-proliferative activity assay, HCT116
Type: cell-based, human
cond: Homo sapiens, HCT-116, 96 h; HCT116 colorectal cancer cells, 4 days, WST-8; read-out: Anti-proliferative activity assay (IC50 in nM) HCT116 (CRC)
measured.endpoint: IC50 (nM)
Your answer should be a plain number; it is taken to be in nM.

Consider the worked cases shown below.
[in] Give the measured IC50 of CC[C@@]1(O)C(=O)OCc2c1cc1n(c2=O)Cc2c-1nc1cccc3c1c2N(CCC(C)C)C(CO)=N3 .
[out] 3.1

[in] Here is the next molecule: CCCCCN1C=Nc2cccc3nc4c(c1c23)Cn1c-4cc2c(c1=O)COC(=O)[C@]2(O)CC
[out] 6.1

[in] Here is the next molecule: CCCCCN1C(C)=Nc2cccc3nc4c(c1c23)Cn1c-4cc2c(c1=O)COC(=O)[C@]2(O)CC
[out] 4.5

# context switch: different molecule, same IC50
[in] Give the measured IC50 of CC[C@@]1(O)C(=O)OCc2c1cc1n(c2=O)Cc2c-1nc1cccc3c1c2N(CCc1ccccc1)C(=O)N3 .
[out] 1.9
